system: SARS-CoV-2 M^pro (Severe acute respiratory syndrome coronavirus 2)
assayInfo: SPE-MS M^pro inhibition assay
Type: biochemical
runConditions: SPE-MS; M^pro 0.05 μM, substrate 2.0 μM; n = 3, mean ± SD; freshly prepared DMSO stocks for 8

[
  {
    "compound": "CO[C@@]1(NC(=O)COc2ccccc2)C(=O)N2[C@@H](C(=O)OCc3ccccc3)C(C)(C)S(=O)(=O)[C@@H]21 [compound 9]",
    "IC50": "inactive"
  },
  {
    "compound": "CC1(C)S[C@H]2N(C(=O)[C@]2(NC(=O)COc2ccccc2)OCc2ccccc2)[C@H]1C(=O)OCc1ccccc1 [16c]",
    "IC50": "inactive"
  }
]

* * *

system: SARS-CoV-2 M^pro (Severe acute respiratory syndrome coronavirus 2)
assayInfo: SPE-MS M^pro inhibition assay
Assay type: biochemical
runConditions: SPE-MS; M^pro 0.05 μM, substrate 2.0 μM; n = 3, mean ± SD; freshly prepared DMSO stocks for 8; read-out: IC50
pIC50: −log10 of the molar value.
parameterMeasured: pIC50

[
  {
    "molecule": "CCO[C@@]1(NC(=O)COc2ccccc2)C(=O)N2[C@@H](C(=O)OCc3ccccc3)C(C)(C)S(=O)(=O)[C@@H]21 [10a]",
    "measurementQualifier": "=",
    "reported": 5.24
  },
  {
    "molecule": "CC1(C)S[C@H]2N(C(=O)[C@]2(NC(=O)COc2ccccc2)OCc2ccccc2)[C@H]1C(=O)OCc1ccccc1 [16c]",
    "measurementQualifier": "<",
    "reported": 4.30
  },
  {
    "molecule": "CC1(C)SC2C(OCc3ccccc3)C(=O)N2C1C(=O)OCc1ccccc1 (stereo not shown) [26f]",
    "measurementQualifier": "=",
    "reported": 5.14
  },
  {
    "molecule": "CCO[C@H]1C(=O)N2[C@@H](C(=O)OCc3ccccc3)C(C)(C)S(=O)(=O)[C@H]12 [27b]",
    "measurementQualifier": "=",
    "reported": 4.36
  }
]

* * *

Below, each entry is listed alongside its reported IC50.
system: SARS-CoV-2 M^pro (Severe acute respiratory syndrome coronavirus 2, UniProt P0DTD1)
assayInfo: SPE-MS M^pro inhibition assay
Type: biochemical
runConditions: SPE-MS; M^pro 0.05 μM, substrate 2.0 μM; n = 3, mean ± SD; freshly prepared DMSO stocks for 8; read-out: IC50

[
  {
    "compound": "CC1(C)SC2C(Oc3ccccc3)C(=O)N2C1C(=O)OCc1ccccc1 (stereo not shown) [26e]",
    "readoutUnit": "µM",
    "measurementQualifier": ">",
    "IC50": 50
  },
  {
    "compound": "CC(C)O[C@H]1C(=O)N2[C@@H](C(=O)OCc3ccccc3)C(C)(C)S(=O)(=O)[C@H]12 [27c]",
    "readoutUnit": "µM",
    "measurementQualifier": "=",
    "IC50": 19
  },
  {
    "compound": "CC1(C)C(C(=O)OCc2ccccc2)N2C(=O)C(NC(=O)COc3ccccc3)C2[S+]1[O-] (stereo not shown)",
    "readoutUnit": "µM",
    "measurementQualifier": "=",
    "IC50": 6.3
  },
  {
    "compound": "CC1(C)C(C(=O)OCc2ccccc2)N2C(=O)C(Oc3ccccc3)C2S1(=O)=O (stereo not shown) [27e]",
    "readoutUnit": "µM",
    "measurementQualifier": ">",
    "IC50": 50
  }
]
